Attribution: patent US6613772B1

Reported melting point values are given for each entry in this list.
Expressed in °C, but write only the number.

As a guide, the following entries are already answered.
COc1cc2nc(-c3ccc(Cl)cc3)nc(NCC(N)=O)c2cc1OC | 291
COc1cccc(CNc2nc(-c3ccc(C)cc3)nc3cc(OC)c(OC)cc23)c1.Cl | 278

Task item: GET /values?readout=melting point&item= COc1cc2nc(-c3ccc(Cl)cc3)nc(NCCO)c2cc1OC
Reply: 236

Task item: GET /values?readout=melting point&item= COc1cc2nc(-c3ccc(Cl)cc3)nc(NCc3cccnc3)c2cc1OC
Reply: 232

Task item: GET /values?readout=melting point&item= COc1cc2nc(-c3ccc(C)cc3)nc(NCc3ccccn3)c2cc1OC
Reply: 196

Task item: GET /values?readout=melting point&item= COc1cc2nc(-c3ccc(Cl)cc3)nc(NCCN(C(C)C)C(C)C)c2cc1OC.Cl.Cl
Reply: 246

Task item: GET /values?readout=melting point&item= COc1cc2nc(-c3ccc(C)cc3)nc(NCc3cccc([N+](=O)[O-])c3)c2cc1OC
Reply: 250

Task item: GET /values?readout=melting point&item= COCCNc1nc(-c2ccc(Cl)cc2)nc2cc(OC)c(OC)cc12
Reply: 178

Task item: GET /values?readout=melting point&item= CCCN(CCC)c1nc(-c2ccc(Cl)cc2)nc2c(OC)c(OC)c(OC)cc12
Reply: 109

Task item: GET /values?readout=melting point&item= COc1cc2nc(-c3ccc(Cl)cc3)nc(N3CCN(CCO)CC3)c2cc1OC
Reply: 163

Task item: GET /values?readout=melting point&item= COc1cc2nc(-c3ccc(C)cc3)nc(N3CC[S+]([O-])CC3)c2cc1OC
Reply: 216

Task item: GET /values?readout=melting point&item= COc1cc2nc(-c3ccc(C(F)(F)F)cc3)nc(NCc3cccnc3)c2cc1OC
Reply: 238

Task item: GET /values?readout=melting point&item= COc1cc2nc(-c3ccc(Cl)cc3)nc(N[C@H]3CC[C@H](O)CC3)c2cc1OC
Reply: 261

Task item: GET /values?readout=melting point&item= COc1cc2nc(-c3ccc(C)cc3)nc(N3CCN(c4ccccn4)CC3)c2cc1OC
Reply: 191

Task item: GET /values?readout=melting point&item= COc1cc2c(N3CCC(C(N)=O)CC3)nc(-c3ccc(Cl)cc3)nc2c(OC)c1OC
Reply: 215

Task item: GET /values?readout=melting point&item= CCCN(CCC)c1nc(-c2cc(C(F)(F)F)cc(C(F)(F)F)c2)nc2c(OC)c(OC)c(OC)cc12
Reply: 121

Task item: GET /values?readout=melting point&item= COc1cccc(CCNc2nc(-c3ccc(C)cc3)nc3cc(OC)c(OC)cc23)c1.Cl
Reply: 256
